Assay: clinical
Format: in vivo
Details: human, plasma, intravenous, 10 mg/m2, t1/2, Sequential schedule, 10 mg/m^2, Day 1; mean (St dev)
measured endpoint: half-life (min)
Answers are plain numbers, in min.

Using known records, supply half-life for `Nc1ncn([C@H]2C[C@H](O)[C@@H](CO)O2)c(=O)n1`
20.4

###

Assay: Vorinostat serum pharmacokinetics, cycle 1
Assay type: in vivo
Conditions: human, serum, oral, 200 mg, AUCt, Concurrent schedule, 200 mg BID, day 4 of cycle 1; mean (St dev)
measured endpoint: AUC(0-t) (ng·h/mL)
Answers are plain numbers, in ng·h/mL.

Using known records, supply AUC(0-t) for O=C(CCCCCCC(=O)Nc1ccccc1)NO [vorinostat, suberoylanilide hydroxamic acid]
573

###

Assay: clinical
Format: in vivo
Conditions: human, plasma, intravenous, 20 mg/m2, AUCt, Sequential schedule, 20 mg/m^2, Day 5; mean (St dev)
measured endpoint: AUC(0-t) (ng·h/mL)
Numbers only, in ng·h/mL.

Using known records, supply AUC(0-t) for `Nc1ncn([C@H]2C[C@H](O)[C@@H](CO)O2)c(=O)n1`
161

###

Assay: Vorinostat serum pharmacokinetics, cycle 1
Format: in vivo
Settings: human, serum, oral, 100 mg, AUCt, Sequential schedule, 100 mg BID, day 9 of cycle 1; mean (St dev)
measured endpoint: AUC(0-t) (ng·h/mL)
Numbers only, in ng·h/mL.

Using known records, supply AUC(0-t) for O=C(CCCCCCC(=O)Nc1ccccc1)NO [vorinostat, suberoylanilide hydroxamic acid]
424

###

Assay: clinical
Type: in vivo
Settings: human, plasma, intravenous, 10 mg/m2, AUCinf, Sequential schedule, 10 mg/m^2, Day 1; mean (St dev)
measured endpoint: AUC(0-inf) (ng·h/mL)
Numbers only, in ng·h/mL.

Using known records, supply AUC(0-inf) for `Nc1ncn([C@H]2C[C@H](O)[C@@H](CO)O2)c(=O)n1`
48.4

###

Test: clinical
Type: in vivo
Conditions: human, plasma, intravenous, 15 mg/m2, AUCt, Sequential schedule, 15 mg/m^2, Day 1; mean (St dev)
measured endpoint: AUC(0-t) (ng·h/mL)
Give bare numbers, in ng·h/mL.

Using known records, supply AUC(0-t) for `Nc1ncn([C@H]2C[C@H](O)[C@@H](CO)O2)c(=O)n1`
112

###

Test: clinical
Assay type: in vivo
Details: human, plasma, intravenous, 10 mg/m2, Cmax, Concurrent schedule, 10 mg/m^2, Day 1; mean (St dev)
measured endpoint: Cmax (ng/mL)
One number for each entry, in ng/mL.

Using known records, supply Cmax for `Nc1ncn([C@H]2C[C@H](O)[C@@H](CO)O2)c(=O)n1`
88.6
